Documented Cytotox ratio Pf Female across a set of compounds
test system: P. falciparum female gametocytes; assay: P. falciparum Dual Gamete Formation Assay (PfDGFA), female readout (Pfs25-positive female gametes); assay type: cell-based, Plasmodium falciparum NF54; details: Mean TOX HepG2 over DGFA IC50 FEM; GREEN = >10-fold; RED = <10-fold
property: Cytotox ratio Pf Female

1. O=C1SC(=Cc2ccc(O)c(O)c2)C(=O)N1c1ccccc1 ... 4.4
2. CN(C)CCNCc1cccc(-c2ccc3c(Nc4ccc(Oc5ccccn5)cc4)ccnc3c2)c1 ... 1.2
3. CC(Nc1cc(-c2ccccn2)nc(-c2ccccn2)n1)c1ccccc1 (stereo not shown) ... 9.6
4. COc1cc2nc(N3CCN(c4nc(N)c5cc(OC)c(OC)cc5n4)CC3)nc(N)c2cc1OC ... 19.9
5. CN1CCN(CCCNCc2cccc(-c3ccc(CNCCc4ccccc4)cc3)c2)CC1.O=C(O)C(F)(F)F ... 1.6
6. CN(C)CCOc1ccc(NC(=O)NC(C)(C)c2nc(-c3ccc(Cl)c(O)c3)c(-c3ccncc3)[nH]2)cc1.Cl ... 57.2
7. O=C(C1CC1)N1c2ccccc2CCc2ccccc21 ... 10.0

* * *

tested on: HepG2 cells; assay: HepG2 cytotoxicity counter-screen; conditions: mean of the HepG2 TOX50 values
Below is a list of entries, each paired with its recorded Mean TOX value.
property: Mean TOX (µM)

1. CS(=O)(=O)Cc1ccc(Nc2ncc(Cl)c(Nc3cccnc3C(N)=O)n2)cc1.Cl ... 100.00
2. COCCCNC(=S)NN=C(C)c1ccccn1 ... 8.74
3. Br.c1cc(C2=NC3CCCCC3N2)ccc1OCCCOc1ccc(C2=NC3CCCCC3N2)cc1 (centres unmarked) ... 30.89
4. O=c1c(Br)ccccc1Br ... 11.45
5. COc1cc2c(cc1S(=O)(=O)c1ccc(COc3ccc(C(F)(F)F)cc3)cc1)CNCC2.Cl ... 16.60
6. CNC(=O)c1cnc(Nc2ccc(N3CCN(C)CC3)cc2)nc1Nc1ccccc1OC.O=C(O)C(F)(F)F ... 35.63
7. c1ccc2[nH]c(CN(Cc3nc4ccccc4[nH]3)Cc3nc4ccccc4[nH]3)nc2c1 ... 100.00
8. CN(C)c1ccnc2ccc(NC(=O)Nc3ccnc4ccccc34)cc12 ... 22.68
9. CCC1=C[C@@H]2CN(C1)Cc1c([nH]c3ccccc13)[C@@](C(=O)OC)(c1cc3c(cc1OC)N(C)[C@H]1[C@@](O)(C(=O)OC)[C@H](O)[C@]4(CC)C=CCN5CC[C@]31[C@@H]54)C2.O=S(=O)(O)O ... 48.44
10. Cn1c(Sc2ncnc3sccc23)nc2ccccc21 ... 100.00
11. Cc1cc(Nc2ccncc2)n2nc(C)c(-c3ccc(Cl)cc3)c2n1 ... 57.77
12. FC(F)(F)c1ccc2[nH]c(-c3ccc(-c4ccc(CNCCN5CCNCC5)cc4)cc3)nc2c1.O=C(O)C(F)(F)F ... 15.09
13. COCCN(C)CCCOc1cc2c(cc1OC)ncn2-c1cc(OCc2ccccc2C(F)(F)F)c(C(N)=O)s1.Cl ... 13.65
14. FC(F)(F)c1cccc(NC(=S)NN=Cc2ccccn2)c1 ... 100.00
15. COCCn1c(Sc2ncnc3sccc23)nc2ccccc21 ... 100.00
16. Fc1ccc2[nH]c(-c3ccc(-c4ccc(CNCCN5CCNCC5)cc4)s3)nc2c1.O=C(O)C(F)(F)F ... 24.53
17. CNC(=O)c1ccccc1Nc1nc(Nc2ccc(N3CCN(C)CC3)nc2)ncc1C.Cl ... 3.44
18. O=C1SC(=Cc2ccc(O)c(O)c2)C(=O)N1c1ccccc1 ... 36.79
19. CC(C)(C)c1ccc(-c2nc3c(ccc4nc(N)nc(N)c43)[nH]2)cc1.Cl ... 3.07
20. Cc1cccc(Nc2nc(N[C@@H]3CCCNC3)nc3cc[nH]c(=O)c23)c1.O=C(O)C(F)(F)F ... 4.09
21. O=C1Nc2ccccc2C1=NNC(=S)N1CCOCC1 ... 46.30
22. Cc1cccc2nc(-c3ccc(-c4cccc(CNCCN5CCNCC5)c4)cc3)[nH]c12.O=C(O)C(F)(F)F ... 18.84
23. COc1cc2nc(N3CCN(c4nc(N)c5cc(OC)c(OC)cc5n4)CC3)nc(N)c2cc1OC ... 39.61
24. Br.c1cc(Nc2nc(-c3ccc(-c4csc(Nc5ccncc5)n4)cc3)cs2)ccn1 ... 8.03
25. CCN(CC)CCN(Cc1ccc(-c2ccc(C(F)(F)F)cc2)cc1)C(=O)Cn1cc(Cc2cnn(C)c2)c(=O)nc1/C=C/c1cccc(F)c1F.O=C(O)C(O)C(O)C(=O)O ... 12.35
26. CCc1cc2c(Sc3nnc(N)s3)ncnc2s1 ... 46.65
27. COc1ccc(Nc2ncc(OC)c(Nc3ccccc3C(N)=O)n2)cc1N1CCN(C)CC1.O=CO ... 9.37
28. CCC1CN2CCc3cc(OC)c(OC)cc3C2CC1CC1NCCc2cc(OC)c(OC)cc21.Cl (centres unmarked) ... 17.84
29. Cc1cc(C(=O)OCC(=O)Nc2c(C)n(C)n(-c3ccccc3)c2=O)c(C)n1-c1ccc(F)cc1 ... 59.75
30. CN1CCC(NCc2ccc(-c3cnc(NCc4ccccc4)nc3)cc2)CC1.O=C(O)C(F)(F)F ... 11.10
31. Cl.NC(=O)c1ccccc1Nc1nc(Nc2cccc(N3CCN(CCO)CC3)c2)ncc1Cl ... 27.38
32. CC(C)(CN)c1nc(-c2ccc(Cl)c(O)c2)c(-c2ccncc2)[nH]1.Cl ... 7.15
33. Cl.NCC1(c2nc(-c3ccc(Cl)c(O)c3)c(-c3ccncc3)[nH]2)CCCCC1 ... 22.85
34. CCn1c(-c2nonc2N)nc2c(-c3ccccc3)ncc(OCCCNCCCN3CCOCC3)c21.O=C(O)C(F)(F)F ... 16.12
35. N=C(N)NCCN(Cc1ccccc1)c1ccc(Cl)cc1 ... 48.68

* * *

Catalogue of % inhibition male (individual replicates) R3 values
tested on: P. falciparum male gametocytes; experiment: P. falciparum Dual Gamete Formation Assay (PfDGFA), male readout (exflagellation); format: cell-based, Plasmodium falciparum NF54; conditions: 2µM, 24h preincubation with gametocytes prior to induction of gametogenesis; replicate R3
property: % inhibition male (individual replicates) R3

1. COc1cc(NCC(O)CNc2cc(OC)c3ccccc3n2)nc2ccccc12 ... 33.7%
2. CN1CCC(N2CCN(Cc3cccc(-c4ccc(-c5nc6cc(F)ccc6[nH]5)cc4)c3)CC2)CC1.O=C(O)C(F)(F)F ... -5.5%
3. Cl.N=C(NCCCc1ccccc1)c1cccc(C(=N)NCCCc2ccccc2)n1 ... -5.0%
4. Nc1nc(N)c2c(Cl)c(N3CCOCC3)ccc2n1 ... -9.7%

* * *

system: P. falciparum male gametocytes; test: P. falciparum Dual Gamete Formation Assay (PfDGFA), male readout (exflagellation); format: cell-based, Plasmodium falciparum NF54; conditions: HepG2 Tox50 versus male IC50
Measured Selectivity Ratio M values are reported for all entries that follow.
property: Selectivity Ratio M

1. CS(=O)(=O)Cc1ccc(Nc2ncc(Cl)c(Nc3cccnc3C(N)=O)n2)cc1.Cl [TCMDC-134165] ... 16.00
2. COc1ccc2c(OC)c(CNCCCCCCNCc3ccc4cc(OC)ccc4c3OC)ccc2c1.CS(=O)(=O)O [TCMDC-137953] ... 2
3. CCCCOc1ccc(C(=O)C(CCC(CNC(C)(C)C)C(=O)c2ccc(OCCCC)cc2)CNC(C)(C)C)cc1.Cl (stereo not shown) [TCMDC-124120] ... 2.27
4. Cc1sc2ncnc(Sc3nnc(N)s3)c2c1C [TCMDC-124542] ... 46.96
5. COc1cccc(CCc2c(CCNCCCCCCNCCc3ccccc3)ccc(OC)c2OC)c1.Cl [TCMDC-132105] ... 2.34
6. CC(CO)(CO)NCc1cc2c3ccccc3c(CNC(C)(CO)CO)cc2c2ccccc12.CS(=O)(=O)O [TCMDC-137752] ... 14.99
7. CN1CCN(CCCNCc2ccc(Nc3nccc(Nc4ccc(Oc5ccccc5)cc4)n3)cc2)CC1 [TCMDC-138621] ... 4.45
8. COCCn1c(Sc2ncnc3sccc23)nc2ccccc21 [TCMDC-125258] ... 81.39
9. Cc1ccc(S(=O)(=O)N(CCCNCc2cccc(O)c2)c2ccccc2)cc1 [TCMDC-138022] ... 100.82
10. CCCOc1ccc2ccccc2c1CNCCCCCCNCc1c(OCCC)ccc2ccccc12.CS(=O)(=O)O [TCMDC-137966] ... 1.77
11. COc1ccc(CNC2CCN(C)CC2)cc1-c1ccc(S(=O)(=O)NCc2ccccc2)c(F)c1.O=C(O)C(F)(F)F [TCMDC-132262] ... 1.94
12. Nc1cc(C=Cc2ccc([N+](=O)[O-])s2)nc2ccccc12 [TCMDC-142296] ... 5.37
13. O=C(Nc1cccc(-c2nn3ncccc3c2-c2ccnc(Nc3cccc(-c4cnco4)c3)n2)c1)c1c(F)cccc1F [TCMDC-135550] ... 4.7
14. c1ccc(-c2nc(Nc3nc4ccccc4[nH]3)[nH]c2-c2ccccc2)cc1 [TCMDC-139099] ... 17.05
15. COc1cc2nc(NCc3cccc(CNC(=O)c4ccc(-c5ccc(C(C)=O)cc5)cc4)c3)nc(N)c2cc1OC.O=C(O)C(F)(F)F [TCMDC-138177] ... 3.88
16. CC(C#N)Cc1ccc(-c2cnc(N)c3cc(-c4ccnc(N)n4)ccc23)cc1 (stereo not shown) [TCMDC-134547] ... 7.45
